Test system: RXF 393
Test: Growth inhibition of human RXF393 cells at 10 uM after 48 hrs by sulforhodamine B assay relative to control
Assay type: functional
Details: RXF 393, 48 h, read-out: GI
MEASUREMENT KIND: inhibition of growth at 10 µM
A bare number is not enough; add the unit after it.

For orientation, consider the following solved cases.
SMILES TEXT: O=C1N/C(=C\c2ccccc2)C(=O)N1S(=O)(=O)c1ccc(Cl)cc1
TARGET ENTITY: RXF 393
TEST RESULT: 0.92%
--
SMILES TEXT: COc1ccc(/C=C2\NC(=O)N(S(=O)(=O)c3ccccc3)C2=O)cc1
TARGET ENTITY: RXF 393
TEST RESULT: 96.5%

(Q) Give the measured inhibition of growth at 10 µM of COc1ccc(-n2c(=O)c3ccccc3n(S(=O)(=O)c3ccccc3)c2=O)cc1 .
(A) 43%

###

Tested on: RXF 393
Assay: Growth inhibition of human RXF393 cells at 10 uM after 48 hrs by sulforhodamine B assay relative to control
Assay type: functional
Details: RXF 393, 48 h, read-out: GI
Reported inhibition of growth at 10 µM is given for each of the following molecules.
Report only the number, with the unit % understood.

Below are worked cases with known answers.
SMILES TEXT: CN(C)c1ccc(/C=C2\NC(=O)N(S(=O)(=O)c3ccccc3)C2=O)cc1
inhibition of growth at 10 µM, %: 80.3

SMILES TEXT: O=C1N/C(=C\c2ccc(Cl)cc2)C(=O)N1S(=O)(=O)c1ccc(Cl)cc1
inhibition of growth at 10 µM, %: 76.2

SMILES TEXT: COc1ccc(/C=C2\NC(=O)N(S(=O)(=O)c3ccc(Cl)cc3)C2=O)cc1
inhibition of growth at 10 µM, %: 84.1

SMILES TEXT: O=C1N/C(=C\c2ccc(Cl)cc2)C(=O)N1S(=O)(=O)c1ccccc1
inhibition of growth at 10 µM, %: 7.42

We now examine a further molecule.
(Q) Notebook entry, RXF 393 assay: inhibition of growth at 10 µM of CN(C)c1ccc(/C=C2\NC(=O)N(S(=O)(=O)c3ccc(Cl)cc3)C2=O)cc1 = ?
(A) 95.7
